Data credit: ChEMBL document CHEMBL1129660

test system: Providencia stuartii; test: Antibacterial activity tested against Providencia stuartii CNUR 5; assay type: functional
# MIC per entry
Note: unit µg/mL is implicit; provide only the numeric part.

// known answers, use as guide
Cc1c(N2CCCCC2)c(N)cc2c(=O)c(C(=O)O)cn(C3CC3)c12; 0.5
Cc1c(N2CCC(C)CC2)c(N(C)C)cc2c(=O)c(C(=O)O)cn(C3CC3)c12; 64
Cc1c(N2CCc3ccccc3C2)c(N)cc2c(=O)c(C(=O)O)cn(C3CC3)c12; 0.06
Cc1c(N2C[C@@H](C)O[C@@H](C)C2)c(N)cc2c(=O)c(C(=O)O)cn(C3CC3)c12; 1
Cc1c(N2CCC(C)CC2)c(N)cc2c(=O)c(C(=O)O)cn(C3CC3)c12; 0.5
Cc1c(N2CCC(O)CC2)c(N)cc2c(=O)c(C(=O)O)cn(C3CC3)c12; 1
O=C(O)c1cn(C2CC2)c2cc(N3CCNCC3)c(F)cc2c1=O [CIPROFLOXACIN]; 0.06

Next up:
Inquiry: Output measured MIC for this item: Cc1c(N2CCNCC2)c(N)cc2c(=O)c(C(=O)O)cn(C3CC3)c12
Reply text: 2

* * *

system: Staphylococcus aureus; test: Antibacterial activity against Staphylococcus aureus MPR 5; format: functional
Please note: MIC exactly at 0.5 µg/mL is No. Only values below 0.5 µg/mL get Yes.

Field: example entries. Status: answers known.
Cc1c(N2CC=CCC2)c(N)cc2c(=O)c(C(=O)O)cn(C3CC3)c12; No
Cc1c(N2CCC(C)CC2)c(N)cc2c(=O)c(C(=O)O)cn(C3CC3)c12; Yes
Cc1c(N2C[C@@H](C)O[C@@H](C)C2)c(N)cc2c(=O)c(C(=O)O)cn(C3CC3)c12; Yes

Inquiry: Bench note: check whether CN1CCN(c2nc3c(cc2N)c(=O)c(C(=O)O)cn3C2CC2)CC1 shows MIC below 0.5 µg/mL
Reply text: No

Inquiry: Bench note: check whether Cc1c(N2CCC(C)CC2)c(N(C)C)cc2c(=O)c(C(=O)O)cn(C3CC3)c12 shows MIC below 0.5 µg/mL
Reply text: No

Inquiry: Bench note: check whether Cc1c(N2CCN(C)CC2)c([N+](=O)[O-])cc2c(=O)c(C(=O)O)cn(C3CC3)c12 shows MIC below 0.5 µg/mL
Reply text: No

Inquiry: Bench note: check whether Cc1c(N2CCCC2)c(N)cc2c(=O)c(C(=O)O)cn(C3CC3)c12 shows MIC below 0.5 µg/mL
Reply text: No

* * *

assay: Geometric mean of antibacterial activity (Gram -ve bacteria) of the compound; format: functional
parameterMeasured: Geometric mean
Hey, just send me the number, nothing else.

// known answers, use as guide
Cc1c(N2CCN(C)CC2)c(N)cc2c(=O)c(C(=O)O)cn(-c3ccc(O)cc3)c12; 2.378
CN1CCN(c2cc3c(cc2N)c(=O)c(C(=O)O)cn3C2CC2)CC1; 0.642
CC1CN(c2cc3c(cc2N)c(=O)c(C(=O)O)cn3C2CC2)CC(C)(C)N1 (centres undefined); 0.451
Cc1c(N2CCC(C)CC2)c([N+](=O)[O-])cc2c(=O)c(C(=O)O)cn(C3CC3)c12; 38.054
CC1CN(c2cc3c(cc2N)c(=O)c(C(=O)O)cn3C2CC2)CCN1 (centres undefined); 0.451
Cc1c(N2CCc3ccccc3C2)c(N)cc2c(=O)c(C(=O)O)cn(C3CC3)c12; 0.105
Cc1c(N2CC(C)NC(C)C2)c(N)cc2c(=O)c(C(=O)O)cn(C3CC3)c12 (centres undefined); 0.348
Cc1c(N2CCCC2)c(N)cc2c(=O)c(C(=O)O)cn(C3CC3)c12; 22.627

Inquiry: Output measured Geometric mean for this item: Cc1c(N2CCN(C)CC2)c(F)cc2c(=O)c(C(=O)O)cn(C3CC3)c12
Reply text: 0.145

Inquiry: Output measured Geometric mean for this item: Cc1c(N2CCN(C)CC2)c(N)cc2c(=O)c(C(=O)O)cn(C3CC3)c12
Reply text: 0.205

Inquiry: Output measured Geometric mean for this item: CN1CCN(c2cc3c(cc2N)c(=O)c(C(=O)O)cn3-c2ccc(F)cc2)CC1
Reply text: 1.834
